Hey, just so you know, these numbers are from patent US20260116991A1.

target: biotinylated labeled human GPC3 protein (produced in-house) (human, UniProt P51654 25-559, limits assumed, biotinylated (Dojindo, Cat. No. LK03); sites not stated); assay: ELISA, biotinylated human GPC3 protein
# reported OD450 at 0.53 nM; entries follow
Output spec: scalar in OD450, unitless text.

Answered examples (3):
>  <binder>
hAb006LH1L1b (antibody, human IgG1, V domains shown, Humanized F3.38.7; VH H1 + VL L1b; expressed as human IgG1) VH: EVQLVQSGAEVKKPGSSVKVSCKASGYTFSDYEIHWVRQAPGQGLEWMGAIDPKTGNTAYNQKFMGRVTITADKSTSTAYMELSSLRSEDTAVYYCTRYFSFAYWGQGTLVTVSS VL: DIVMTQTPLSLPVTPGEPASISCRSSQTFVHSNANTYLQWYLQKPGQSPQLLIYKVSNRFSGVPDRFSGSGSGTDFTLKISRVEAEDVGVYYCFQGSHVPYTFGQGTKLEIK

>  <OD450 at 0.53 nM [OD450]>
2.4

$$$$
>  <binder>
hAb006LH3L1 (antibody, human IgG1, V domains shown, Humanized F3.38.7; VH H3 + VL L1; expressed as human IgG1) VH: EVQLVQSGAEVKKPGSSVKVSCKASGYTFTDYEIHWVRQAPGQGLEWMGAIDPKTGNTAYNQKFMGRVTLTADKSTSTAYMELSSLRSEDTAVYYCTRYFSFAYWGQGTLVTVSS VL: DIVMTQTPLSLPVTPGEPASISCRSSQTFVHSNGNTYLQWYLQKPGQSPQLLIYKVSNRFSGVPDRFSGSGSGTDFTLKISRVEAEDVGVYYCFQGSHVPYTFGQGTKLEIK

>  <OD450 at 0.53 nM [OD450]>
2.06

$$$$
>  <binder>
hAb003LH3L1a (antibody, human IgG1, V domains shown, Humanized F2.154.1; VH H3 + VL L1a; expressed as human IgG1) VH: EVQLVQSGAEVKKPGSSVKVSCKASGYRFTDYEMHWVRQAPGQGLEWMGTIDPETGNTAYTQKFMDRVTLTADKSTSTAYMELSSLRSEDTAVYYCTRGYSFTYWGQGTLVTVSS VL: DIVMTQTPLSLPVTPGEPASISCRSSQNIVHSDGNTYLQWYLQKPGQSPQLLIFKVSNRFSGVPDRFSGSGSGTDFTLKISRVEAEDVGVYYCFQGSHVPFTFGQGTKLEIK

>  <OD450 at 0.53 nM [OD450]>
2.04

$$$$

For the next question, use this binder.
Inquiry: What OD450 at 0.53 nM value was documented for this binder, hAb005LH1L1a (antibody, human IgG1, V domains shown, Humanized F3.54.12; VH H1 + VL L1a; expressed as human IgG1) VH: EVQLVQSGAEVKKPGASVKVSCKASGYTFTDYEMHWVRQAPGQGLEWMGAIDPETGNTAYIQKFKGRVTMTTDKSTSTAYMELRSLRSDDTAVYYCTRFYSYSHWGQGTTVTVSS VL: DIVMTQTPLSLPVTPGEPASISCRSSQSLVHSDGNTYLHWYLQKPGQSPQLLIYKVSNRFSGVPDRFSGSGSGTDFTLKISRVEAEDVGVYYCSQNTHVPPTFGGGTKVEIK ?
Reply text: 0.056
